Hey, just so you know, these numbers are from ChEMBL document CHEMBL1130161.

TARGET_UNDER_TEST: Human immunodeficiency virus type 1 protease (Human immunodeficiency virus 1, UniProt Q72874)
MEASURED_PROPERTY: pKi
pKi here is simply -log10 of the concentration when that concentration is written in mol/L.

Suppose we examine the compound O=C(Nc1ncc[nH]1)c1cccc(CN2C(=O)N(CC3CC3)[C@H](Cc3ccccc3)[C@H](O)[C@@H](O)[C@H]2Cc2ccccc2)c1 ; what pKi value has been reported? 10.80

// returns reported pKi for input CCCCN1C(=O)N(Cc2cccc(C(=O)Nc3ncc[nH]3)c2)[C@H](Cc2ccccc2)[C@H](O)[C@@H](O)[C@H]1Cc1ccccc1 10.60

pKi lookup needed for O=C(Nc1nccs1)c1cccc(CN2C(=O)N(Cc3ccccc3)[C@H](Cc3ccccc3)[C@H](O)[C@@H](O)[C@H]2Cc2ccccc2)c1 , thanks. 10.13

Dear colleague, I am looking for the recorded pKi of the following compound: O=C(Nc1nc2ccccc2[nH]1)c1cccc(CN2C(=O)N(CC3CC3)[C@H](Cc3ccccc3)[C@H](O)[C@@H](O)[C@H]2Cc2ccccc2)c1 10.43

What value of pKi has been reported for the following compound? CC(C)[C@H](NC(=O)OCc1ccccc1)C(=O)N[C@@H](Cc1ccccc1)[C@H](O)[C@@H](O)[C@@H](Cc1ccccc1)NC(=O)[C@H](NC(=O)OCc1ccccc1)C(C)C 9.60

Item under review: Nc1cccc(CN2C(=O)N(Cc3cccc(N)c3)[C@H](Cc3ccccc3)[C@H](O)[C@@H](O)[C@H]2Cc2ccccc2)c1 . Reported pKi? 9.47

// next item, pKi requested
Report pKi for O=C(Nc1ncc[nH]1)c1cccc(CN2C(=O)N(Cc3ccccc3)[C@H](Cc3ccccc3)[C@H](O)[C@@H](O)[C@H]2Cc2ccccc2)c1 please. 10.48

----------
EXPERIMENT_SUMMARY: Resistance of constructed mutant 82F virus was calculated as (IC90 for a mutant virus / IC90 of wt HXB2 virus).
Format: functional
// boundary case: Resistance equal to 3 maps to n; strictly smaller maps to y

Please review the following examples before continuing.
Quick check: Resistance of O=C(Nc1nccs1)c1cccc(CN2C(=O)N(CC3CC3)[C@H](Cc3ccccc3)[C@H](O)[C@@H](O)[C@H]2Cc2ccccc2)c1 under 3? n

Please indicate whether the reported Resistance of O=C(Nc1ncc[nH]1)c1cccc(CN2C(=O)N(Cc3ccccc3)[C@H](Cc3ccccc3)[C@H](O)[C@@H](O)[C@H]2Cc2ccccc2)c1 is strictly below 3. y

Find out if reported Resistance for O=C1N(CC2CC2)[C@H](Cc2ccccc2)[C@H](O)[C@@H](O)[C@@H](Cc2ccccc2)N1CC1CC1 is less than 3 n

Lab log: compare recorded Resistance with 3; is it strictly lower for Nc1cccc(CN2C(=O)N(Cc3cccc(N)c3)[C@H](Cc3ccccc3)[C@H](O)[C@@H](O)[C@H]2Cc2ccccc2)c1 [MOZENAVIR] ? n

For this compound, is Resistance lower than 3? CC(C)CN(C[C@@H](O)[C@H](Cc1ccccc1)NC(=O)O[C@H]1CCOC1)S(=O)(=O)c1ccc(N)cc1 y

Here is another compound to look at.
Quick check: does CCCCN1C(=O)N(Cc2cccc(C(=O)Nc3ncc[nH]3)c2)[C@H](Cc2ccccc2)[C@H](O)[C@@H](O)[C@H]1Cc1ccccc1 have Resistance under 3? n

----------
Below, each of the molecules is paired with its reported Resistance value.
Tested on: Human immunodeficiency virus
EXPERIMENT_SUMMARY: Resistance of constructed mutant […]/47V/50V virus was calculated as (IC90 for a mutant virus / IC90 of wt HXB2 virus).
Assay type: functional
Give the figure by itself; no unit, no explanation.

Answered cases to consult:
Quick one: Resistance of O=C(Nc1nc2ccccc2[nH]1)c1cccc(CN2C(=O)N(CC3CC3)[C@H](Cc3ccccc3)[C@H](O)[C@@H](O)[C@H]2Cc2ccccc2)c1 ? 2.1

Requested field: Resistance. Item: CC(C)(C)NC(=O)[C@@H]1CN(Cc2cccnc2)CCN1C[C@@H](O)C[C@@H](Cc1ccccc1)C(=O)N[C@H]1c2ccccc2C[C@H]1O.O 1.8

Give its Resistance value. Item: Nc1cccc(CN2C(=O)N(Cc3cccc(N)c3)[C@H](Cc3ccccc3)[C@H](O)[C@@H](O)[C@H]2Cc2ccccc2)c1 7.5

Request the reported Resistance associated with O=C(Nc1ncc[nH]1)c1cccc(CN2C(=O)N(Cc3cccc(C(=O)Nc4ncc[nH]4)c3)[C@H](Cc3ccccc3)[C@H](O)[C@@H](O)[C@H]2Cc2ccccc2)c1 0.4

Field request: Resistance | item: O=C1N(CC2CC2)[C@H](Cc2ccccc2)[C@H](O)[C@@H](O)[C@@H](Cc2ccccc2)N1CC1CC1 1.7

Others:
// Resistance lookup, key: O=C(Nc1nccs1)c1cccc(CN2C(=O)N(CC3CC3)[C@H](Cc3ccccc3)[C@H](O)[C@@H](O)[C@H]2Cc2ccccc2)c1 11

Item under review: O=C1N(Cc2ccc(CO)cc2)[C@H](Cc2ccccc2)[C@H](O)[C@@H](O)[C@@H](Cc2ccccc2)N1Cc1ccc(CO)cc1 . Reported Resistance? 11

----------
TARGET_UNDER_TEST: Human immunodeficiency virus type 1 protease (Human immunodeficiency virus 1) (UniProt Q72874)
EXPERIMENT_SUMMARY: Inhibitory concentration against accumulation of viral p24 antigen following infection of MT-4 cells
Format: functional, cell-based
RECORDED_CONDITIONS: MT4
Please note: IC90 exactly at 30 nM is Not satisfied. Only values below 30 nM get Satisfied.

Quick check: does O=C1N(CC2CC2)[C@H](Cc2ccccc2)[C@H](O)[C@@H](O)[C@@H](Cc2ccccc2)N1CC1CC1 have IC90 under 30 nM? Not satisfied

Dear reviewer, please state whether CC(C)(C)NC(=O)[C@@H]1CN(Cc2cccnc2)CCN1C[C@@H](O)C[C@@H](Cc1ccccc1)C(=O)N[C@H]1c2ccccc2C[C@H]1O.O has IC90 strictly beneath 30 nM. Satisfied

Determine whether this compound shows IC90 lower than 30 nM (ties excluded): Nc1cccc(CN2C(=O)N(Cc3cccc(N)c3)[C@H](Cc3ccccc3)[C@H](O)[C@@H](O)[C@H]2Cc2ccccc2)c1 Not satisfied

---
Decide: IC90 of O=C(Nc1ncc[nH]1)c1cccc(CN2C(=O)N(CC3CC3)[C@H](Cc3ccccc3)[C@H](O)[C@@H](O)[C@H]2Cc2ccccc2)c1 strictly below 30 nM? Satisfied

Identify whether the compound O=C(Nc1nccs1)c1cccc(CN2C(=O)N(CC3CC3)[C@H](Cc3ccccc3)[C@H](O)[C@@H](O)[C@H]2Cc2ccccc2)c1 records IC90 below 30 nM. Not satisfied

Hello, I'm reviewing records and need to know if IC90 of O=C(Nc1nc2ccccc2[nH]1)c1cccc(CN2C(=O)N(Cc3cccc(C(=O)Nc4nc5ccccc5[nH]4)c3)[C@H](Cc3ccccc3)[C@H](O)[C@@H](O)[C@H]2Cc2ccccc2)c1 is below 30 nM. Could you check? Satisfied

----------
TARGET_UNDER_TEST: Human immunodeficiency virus type 1 protease (Human immunodeficiency virus 1)
EXPERIMENT_SUMMARY: Inhibitory concentration against accumulation of viral p24 antigen following infection of MT-4 cells
Type: functional, cell-based
RECORDED_CONDITIONS: MT4
// reported IC90 per item
I only need the number, in nM, no unit after it.

Need IC90, item CC(C)(C)NC(=O)[C@@H]1C[C@@H]2CCCC[C@@H]2CN1C[C@@H](O)[C@H](Cc1ccccc1)NC(=O)[C@H](CC(N)=O)NC(=O)c1ccc2ccccc2n1 15

Need IC90 of O=C(Nc1ncc[nH]1)c1cccc(CN2C(=O)N(Cc3ccccc3)[C@H](Cc3ccccc3)[C@H](O)[C@@H](O)[C@H]2Cc2ccccc2)c1 , thanks. 21

Entry CC(C)[C@H](NC(=O)OCc1ccccc1)C(=O)N[C@@H](Cc1ccccc1)[C@H](O)[C@@H](O)[C@@H](Cc1ccccc1)NC(=O)[C@H](NC(=O)OCc1ccccc1)C(C)C : reported IC90 = ? 195

Recorded IC90 of CCCCN1C(=O)N(Cc2cccc(C(=O)Nc3ncc[nH]3)c2)[C@H](Cc2ccccc2)[C@H](O)[C@@H](O)[C@H]1Cc1ccccc1 , please. 18

IC90 lookup needed for O=C(Nc1nc2ccccc2[nH]1)c1cccc(CN2C(=O)N(CC3CC3)[C@H](Cc3ccccc3)[C@H](O)[C@@H](O)[C@H]2Cc2ccccc2)c1 , thanks. 17

Moving on to the next molecule.
# query: IC90 of entry O=C1N(Cc2ccc(CO)cc2)[C@H](Cc2ccccc2)[C@H](O)[C@@H](O)[C@@H](Cc2ccccc2)N1Cc1ccc(CO)cc1 [DMP-323] 95

----------
Tested on: Human immunodeficiency virus
EXPERIMENT_SUMMARY: Resistance of constructed mutant 84V virus was calculated as (IC90 for a mutant virus / IC90 of wt HXB2 virus).
Format: functional
# Resistance values compiled below
// no unit, no text: just the number

See these solved cases before continuing.
So what does the record say about Resistance for CC(C)[C@H](NC(=O)OCc1ccccc1)C(=O)N[C@@H](Cc1ccccc1)[C@H](O)[C@@H](O)[C@@H](Cc1ccccc1)NC(=O)[C@H](NC(=O)OCc1ccccc1)C(C)C ? 2.1

Look up Resistance for this molecule: O=C(Nc1ncc[nH]1)c1cccc(CN2C(=O)N(Cc3ccccc3)[C@H](Cc3ccccc3)[C@H](O)[C@@H](O)[C@H]2Cc2ccccc2)c1 2.9

For the molecule O=C(Nc1nccs1)c1cccc(CN2C(=O)N(CC3CC3)[C@H](Cc3ccccc3)[C@H](O)[C@@H](O)[C@H]2Cc2ccccc2)c1 , what Resistance is on record? 6.1

---
Recorded Resistance of O=C1N(Cc2ccc(CO)cc2)[C@H](Cc2ccccc2)[C@H](O)[C@@H](O)[C@@H](Cc2ccccc2)N1Cc1ccc(CO)cc1 , please. 22

Entry under review: O=C(Nc1nc2ccccc2[nH]1)c1cccc(CN2C(=O)N(CC3CC3)[C@H](Cc3ccccc3)[C@H](O)[C@@H](O)[C@H]2Cc2ccccc2)c1 . Reported Resistance? 8.4
